mortality at 1.25 ppm values, listed per item
System: Caenorhabditis elegans
Test: C. Elegans Nematode Screening Test and Evaluation (in-vitro)
Conditions: Caenorhabditis elegans; Table 10 evaluation; 1.25 ppm; read-out: Percent Mortality
Protocol: This in-vitro test using the free-living nematode Caenorhabditis elegans, is a modification of the assay developed by Simpkin and Coles, J. Chem. Tech. […] The effect of the candidate nematicide on the survival and the reproduction of C. elegans was then evaluated by comparison of the level of population developed in the treated wells with that in untreated wells. […]
PROPERTY_MEASURED: mortality at 1.25 ppm

smiles_text=FC(F)=C(F)CCSc1nc(-c2ccc(Cl)cc2)no1 experimental_result=67%
smiles_text=O=[N+]([O-])c1ccc(CSc2nnc(SCCC(F)=C(F)F)s2)cc1 experimental_result=100%
smiles_text=FC(F)=C(F)CCSc1nnc(SCc2ccccc2)s1 experimental_result=0%
smiles_text=O=[N+]([O-])c1ccc(-c2noc(SCCC(F)=C(F)F)n2)cc1 experimental_result=100%
smiles_text=FC(F)=C(F)CCSc1nsc(SCCC(F)=C(F)F)n1 experimental_result=0%

###

System: root-knot nematode (Meloidogyne incognita)
Assay: Initial Root-Knot Nematicidal Activity
Assay type: in vivo
Details: 336 h, Table 2, Application Rate 0.156 ppm, read-out: Percent Control
Method: Compounds of this invention were tested as follows for nematicidal and anthelmintic activity as dust formulations (initial and residual activity) and as acetone/water formulations (systemic activity). The formulations are described above. The activity against root-knot nematode (Meloidogyne incognita) was determined by incorporating the compound of the invention in nematode infested soil at rates in the range of 10 ppm to 0.078 ppm of compound. […]
PROPERTY_MEASURED: pest or weed control at 0.156 ppm

smiles_text=CCCc1nnc(SCCC(F)=C(F)F)o1 experimental_result=84%
smiles_text=FC(F)=C(F)CCSc1nnc(-c2cccc(Cl)c2)o1 experimental_result=38%
smiles_text=FC(F)=C(F)CCSc1nnc(Cc2ccc(Cl)cc2)o1 experimental_result=38%
smiles_text=FC(F)=C(F)CCSc1nnc(SCCC(F)=C(F)F)s1 experimental_result=13%
smiles_text=FC(F)=C(F)CCSc1nnc(SCc2ccccc2)s1 experimental_result=31%
smiles_text=FC(F)=C(F)CCSc1nnc(SCc2ccccc2F)s1 experimental_result=64%
smiles_text=C=CCSc1nnc(SCCC(F)=C(F)F)s1 experimental_result=13%
smiles_text=FC(F)=C(F)CCSc1nnc(-c2ccc(Cl)cc2)s1 experimental_result=0%
smiles_text=FC(F)=C(F)CCSc1nnc(SCc2cccs2)s1 experimental_result=25%
smiles_text=O=[N+]([O-])c1ccc(CSc2nnc(SCCC(F)=C(F)F)s2)cc1 experimental_result=6%
smiles_text=FC(F)=C(F)CCSc1nnc(Cc2ccccc2)o1 experimental_result=50%

###

mortality at 1.25 ppm values, listed per item
test system: Caenorhabditis elegans; experiment: C. Elegans Nematode Screening Test and Evaluation (in-vitro); conditions: Caenorhabditis elegans; Table 10 evaluation; 1.25 ppm; read-out: Percent Mortality
PROPERTY_MEASURED: mortality at 1.25 ppm (%)

smiles_text=FC(F)=C(F)CCSc1nnc(SCc2ccccc2F)s1 unit_of_measurement=% experimental_result=0
smiles_text=FC(F)=C(F)CCSc1nnc(-c2cccc(Cl)c2)o1 unit_of_measurement=% experimental_result=0
smiles_text=O=[N+]([O-])c1ccc(CSc2nsc(SCCC(F)=C(F)F)n2)cc1 unit_of_measurement=% experimental_result=100
smiles_text=FC(F)=C(F)CCSc1nnc(SCc2ccc(Br)cc2)s1 unit_of_measurement=% experimental_result=100
smiles_text=FC(F)=C(F)CCSc1nnc(-c2ccc(Cl)cc2)s1 unit_of_measurement=% experimental_result=100
smiles_text=FC(F)=C(F)CCSc1nnc(Cc2ccc(Cl)cc2)o1 unit_of_measurement=% experimental_result=0

###

tested on: stunt nematode; assay: Stunt Nematode Test; format: in vivo; conditions: 672 h, Table 4a; rate 5 ppm; read-out: Percent Control
Answer no if pest or weed control at 5 ppm is under 60%, and yes if it is 60% or more.

smiles_text=FC(F)=C(F)CCSc1nnc(SCc2ccc(Br)cc2)s1 class_assignment=no
smiles_text=FC(F)=C(F)CCSc1nnc(-c2cccc(Cl)c2)o1 class_assignment=yes
smiles_text=CC(C)Sc1nnc(SCCC(F)=C(F)F)s1 class_assignment=yes
smiles_text=FC(F)=C(F)CCSc1nnc(-c2ccc(Br)cc2)o1 class_assignment=no
smiles_text=CCCSc1nnc(SCCC(F)=C(F)F)s1 class_assignment=no
smiles_text=O=[N+]([O-])c1ccc(CSc2nnc(SCCC(F)=C(F)F)s2)cc1 class_assignment=yes

###

tested on: Caenorhabditis elegans; assay: C. Elegans Nematode Screening Test and Evaluation (in-vitro); details: Caenorhabditis elegans; Table 10 evaluation; 2.5 ppm; read-out: Percent Mortality
mortality at 2.5 ppm values, listed per item
PROPERTY_MEASURED: mortality at 2.5 ppm (%)

molecule="FC(F)=C(F)CCSc1nc(-c2ccc(Cl)cc2)no1 [Compound 39]" unit_of_measurement=% experimental_result=100
molecule="FC(F)=C(F)CCSc1nnc(SCc2ccccc2F)s1 [Compound 34]" unit_of_measurement=% experimental_result=100
molecule="FC(F)=C(F)CCSc1nnc(-c2cccc(Cl)c2)o1 [Compound 48]" unit_of_measurement=% experimental_result=0
molecule="O=[N+]([O-])c1ccc(-c2noc(SCCC(F)=C(F)F)n2)cc1 [Compound 40]" unit_of_measurement=% experimental_result=100
molecule="FC(F)=C(F)CCSc1nnc(Cc2ccc(Cl)cc2)o1 [Compound 43]" unit_of_measurement=% experimental_result=67
molecule="FC(F)=C(F)CCSc1nnc(SCc2ccc(Br)cc2)s1 [Compound 33]" unit_of_measurement=% experimental_result=100
molecule="O=[N+]([O-])c1ccc(CSc2nnc(SCCC(F)=C(F)F)s2)cc1 [Compound 35]" unit_of_measurement=% experimental_result=100
molecule="O=[N+]([O-])c1ccc(CSc2nsc(SCCC(F)=C(F)F)n2)cc1 [Compound 26]" unit_of_measurement=% experimental_result=100
molecule="FC(F)=C(F)CCSc1nsc(SCCC(F)=C(F)F)n1 [Compound 25]" unit_of_measurement=% experimental_result=0
molecule="FC(F)=C(F)CCSc1nnc(-c2ccc(Cl)cc2)s1 [Compound 37]" unit_of_measurement=% experimental_result=100
molecule="FC(F)=C(F)CCSc1nnc(SCc2ccccc2)s1 [Compound 32]" unit_of_measurement=% experimental_result=0

###

test system: root-knot nematode (Meloidogyne incognita); assay: Initial Root-Knot Nematicidal Activity; type: in vivo; conditions: 336 h, Table 2, Application Rate 0.313 ppm, read-out: Percent Control
PROPERTY_MEASURED: pest or weed control at 0.313 ppm (%)

compound="O=C1CCC(=O)N1CCC(F)=C(F)F [Compound 5, N-(3,4,4-trifluoro-3-butenyl)succinimide]" unit_of_measurement=% experimental_result=0
compound=CC(C)(C)CC(C)(C)Sc1nnc(SCCC(F)=C(F)F)s1 unit_of_measurement=% experimental_result=8
compound=FC(F)=C(F)CCSc1nnc(SCC2CC2)s1 unit_of_measurement=% experimental_result=6
compound=O=C(CSCCC(F)=C(F)F)OCCC(F)=C(F)F unit_of_measurement=% experimental_result=0
compound=O=C(OCCC(F)=C(F)F)c1ccc(Cl)cc1 unit_of_measurement=% experimental_result=38
compound=FC(F)=C(F)CCSC1=NCCS1 unit_of_measurement=% experimental_result=99
compound=CSc1nnc(SCCC(F)=C(F)F)s1 unit_of_measurement=% experimental_result=38
compound=FC(F)=C(F)CCSc1nnc(-c2ccccc2)o1 unit_of_measurement=% experimental_result=0
compound=O=C(OCCC(F)=C(F)F)c1ccc[nH]1 unit_of_measurement=% experimental_result=0
compound=C#CCSc1nnc(SCCC(F)=C(F)F)s1 unit_of_measurement=% experimental_result=0
compound=O=C(OCCC(F)=C(F)F)c1cccs1 unit_of_measurement=% experimental_result=0
compound=O=C(OCCC(F)=C(F)F)c1ccc([N+](=O)[O-])o1 unit_of_measurement=% experimental_result=0
compound=FC(F)=C(F)CCSc1nnc(SCCC(F)=C(F)F)s1 unit_of_measurement=% experimental_result=71

###

pest or weed control at 5 ppm values, listed per item
tested on: root-knot nematode; experiment: Residual Root-Knot Nematicidal Activity; type: in vivo, Meloidogyne incognita; settings: 336 h, Table 3a; 5% dust, 5 ppm; inoculation 2 weeks post-treatment; read-out: Percent Control
PROPERTY_MEASURED: pest or weed control at 5 ppm (%)

smiles_text=C=CCSc1nnc(SCCC(F)=C(F)F)s1 experimental_result=97
smiles_text=CCCc1nnc(SCCC(F)=C(F)F)o1 experimental_result=63
smiles_text=FC(F)=C(F)CCSc1nnc(-c2cccc(Cl)c2)o1 experimental_result=97
smiles_text=FC(F)=C(F)CCSc1nnc(CCc2ccccc2)o1 experimental_result=25
smiles_text=O=[N+]([O-])c1ccc(CSc2nnc(SCCC(F)=C(F)F)s2)cc1 experimental_result=96
smiles_text=CCCSc1nnc(SCCC(F)=C(F)F)s1 experimental_result=98
smiles_text=N#CCCSc1nnc(SCCC(F)=C(F)F)s1 experimental_result=100
smiles_text=CC(C)Sc1nnc(SCCC(F)=C(F)F)s1 experimental_result=97
smiles_text=FC(F)=C(F)CCSc1nnc(Cc2ccccc2F)o1 experimental_result=100
smiles_text=FC(F)=C(F)CCSc1nnc(Cc2ccccc2)o1 experimental_result=97
smiles_text=FC(F)=C(F)CCSc1nnc(SCc2ccccc2)s1 experimental_result=99
smiles_text=FC(F)=C(F)CCSc1nsc(SCCC(F)=C(F)F)n1 experimental_result=97
smiles_text=FC(F)=C(F)CCSc1nnc(Cc2ccc(Cl)cc2)o1 experimental_result=100
smiles_text=FC(F)=C(F)CCSc1nnc(Cc2ccc(F)cc2)o1 experimental_result=100
smiles_text=FC(F)=C(F)CCSc1nnc(Cc2ccc(F)cc2F)o1 experimental_result=100
smiles_text=FC(F)=C(F)CCSc1nnc(SCc2cccs2)s1 experimental_result=99
